Test system: Purified ICAs of T. cruzi
Experiment: microbe, parasite or virus in culture
Type: cell-based, Trypanosoma cruzi (Y strain)
Settings: Trypanosoma cruzi, 24 h, read-out: Purified ICAs EC50
pEC50: −log10 of the molar value.
Endpoint name: pEC50

Please look at this compound and report its pEC50: "Cc1nn(C)c(C)c1NS(=O)(=O)c1c(Cl)cc(CCCN2CCN(C)CC2)cc1Cl"
< 4.30

* * *

Test system: U2OS cells
Experiment: Cytotoxicity (viability) assay on non-infected U2OS cells, high-content imaging
Type: cell-based, human
Conditions: Homo sapiens, U2OS, 48 h, read-out: U2OS cells EC50
Procedure: DMSO control wells contained 30 μL 6% DMSO, whereas wells for the negative control contained 1% hydrogen peroxide in DMEM. […] Following an additional 4-h incubation, the plate was read in a microplate fluorometer (Thermo Scientific) at excitation 560 nm, emission 590 nm. […] EC50 were determined from three independent experiments.
pEC50: −log10 of the molar value.
Endpoint name: pEC50

Give measured pEC50 for Cc1nn(C)c(C)c1NS(=O)(=O)c1c(Cl)cc(CCCN2CCN(C)CC2)cc1Cl [Compound 3] (U2OS cells).
< 4.30
